Cited source: paper PMC5500810

# MEASURED TARGET: EphA4 ligand-binding domain (human, amino acids 22-203) (human, UniProt P54764 22-203, biotin on primary amines (EZ link NHS biotin) in the AlphaScreen assays only)
# Sequence (P54764 22-203): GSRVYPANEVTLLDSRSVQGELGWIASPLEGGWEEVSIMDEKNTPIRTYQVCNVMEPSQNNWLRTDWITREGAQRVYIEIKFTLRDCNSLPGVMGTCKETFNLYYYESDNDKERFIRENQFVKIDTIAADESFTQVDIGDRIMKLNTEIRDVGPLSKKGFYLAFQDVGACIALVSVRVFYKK
# PROTOCOL NOTES: SPR; kd2
Parameter log10 koff: see the listing below.
REPORTED METRIC: log10 koff (log10 of the value in s⁻¹)

[
  {
    "BINDER": "Nb 39 (VHH, biotin on primary amines (EZ link NHS biotin) in the Eph receptor selectivity AlphaScreen only) VHH: QVQLQESGGGLVQPGGSLKLSCAASGFTFSTYAMSWVRQAPGKGLEWVSRINSGGGYTWHADSVKGRFTISRDNARNTVYLQMNNLKPEDTAVYYCTNLNTGWRPEYWGQGTQVTVSS",
    "REPORTED METRIC": "log10 koff",
    "READOUT NUMBER": -2.73
  },
  {
    "BINDER": "Nb 50 (VHH, biotin on primary amines (EZ link NHS biotin) in the Eph receptor selectivity AlphaScreen only) VHH: QVQLQESGGGLVQAGGSLRLSCAASGRTFNSYAEAWFRQAPGKEREMIAAVTKAGTTNYANPVKGRFTISRDDAKNMVYLQMNNLKPEDSAVYYCNAISPLWDEYDFWGPGTQVTVSS",
    "REPORTED METRIC": "log10 koff",
    "READOUT NUMBER": -3.21
  },
  {
    "BINDER": "Nb 31 (VHH, biotin on primary amines (EZ link NHS biotin) in the Eph receptor selectivity AlphaScreen only) VHH: QVQLQESGGGLVQAGGSLRLSCAASGFASDAYAIGWFRQAPGTKREMIAAVTKAGATNYANPVKGRFTISRDDAKNMVYLQMNNLKPEDSAVYYCNAISPLWDEYDFWGPGTQVTVSS",
    "REPORTED METRIC": "log10 koff",
    "READOUT NUMBER": -2.17
  },
  {
    "BINDER": "Nb 22 (VHH, biotin on primary amines (EZ link NHS biotin) in the Eph receptor selectivity AlphaScreen only) VHH: QVQLQESGGGPVRAGESLRLSCTASGRAFSTYTMGWFRQAPGKERELVAVITPGGNTNYADSVKGRFTISRDDAKNTVYLQMNSLKPVDTAVYYCHVVLAVVGTGNEYDVWGQGTQVTVSS",
    "REPORTED METRIC": "log10 koff",
    "READOUT NUMBER": -2.59
  },
  {
    "BINDER": "Nb 19 (VHH) VHH: QVQLQESGGGLVQPGGSLRLSCAATGRNFNAYSIAWFRQAPGKEREFVASINWSGSNTYYAVAVKGRFTTSRDNAKNTVYLQMNSLKPEDTAVYYCNAFAAGWGPDYWGQGTQVTVSS",
    "REPORTED METRIC": "log10 koff",
    "READOUT NUMBER": -1.54
  },
  {
    "BINDER": "Nb 57 (VHH, biotin on primary amines (EZ link NHS biotin) in the Eph receptor selectivity AlphaScreen only) VHH: QVQLQESGGGLVQPGGSLRLSCAASGFTFSSYYMYWVRQAPGKGLEWVSTINTGGGSTNYADSVKGRFIISRDNAKNTVYLQMNSLKPEDTAVYYCNAFAAGWGPDYWGQGTQVTVSS",
    "REPORTED METRIC": "log10 koff",
    "READOUT NUMBER": -2.88
  }
]
